- System: C. albicans B3
- Test details: microbe, parasite or virus in culture
- Assay type: cell-based
- Recorded conditions: Candida albicans; C. albicans B3, RPMI-1640, 37 °C, 48 h; read-out: MIC50
- Experimental: […] The antifungal activity was determined on the 96-well polystyrene microtiter plates (Sarstedt) according to Clinical and Laboratory Standards Institute M27-A3[95]. […] Optical density was measured at A490nm using a microplate reader ASYS UVM 340 (Biogenet).
Readout label: MIC50 (µM)
Kindly answer with a numeric value in µM, unit omitted.

Completed entries (count: 3):
# Compound, Assay system, Units of measure, Recorded value
records = [
    ("Clc1ccc([C@@]2(Cn3ccnc3)OC[C@H](COc3ccc(N4CCN(CP(=[Se])(c5ccccc5)c5ccccc5)CC4)cc3)O2)c(Cl)c1 [KeSeP, Ph2P(Se)CH2-Ke]", "C. albicans B3", "µM", 3.13),
    ("Clc1ccc([C@@]2(Cn3ccnc3)OC[C@H](COc3ccc(N4CCN(CP(c5ccccc5)c5ccccc5)CC4)cc3)O2)c(Cl)c1 (racemic) [KeP, Ph2PCH2-Ke]", "C. albicans B3", "µM", 0.39),
    ("O=P(CN1CCN(c2ccc(OC[C@H]3CO[C@](Cn4ccnc4)(c4ccc(Cl)cc4Cl)O3)cc2)CC1)(c1ccccc1)c1ccccc1 (racemic) [KeOP, Ph2P(O)CH2-Ke]", "C. albicans B3", "µM", 1.56),
]

Okay, now this compound:
Req: Need MIC50 of S=P(CN1CCN(c2ccc(OC[C@H]3CO[C@](Cn4ccnc4)(c4ccc(Cl)cc4Cl)O3)cc2)CC1)(c1ccccc1)c1ccccc1 [KeSP, Ph2P(S)CH2-Ke] , thanks.
Resp: 1.56

* * *

- Tested on: C. albicans CAF2-1
- Test details: microbe, parasite or virus in culture
- Assay type: cell-based, Candida albicans
- Recorded conditions: Candida albicans, CAF21, 48 h
In this section we review reported MIC50 values for a set of molecules.
# value in µM; strip the unit string

Req: Would you mind telling me what MIC50 value was observed for Clc1ccc([C@@]2(Cn3ccnc3)OC[C@H](COc3ccc(N4CCN(CP(=[Se])(c5ccccc5)c5ccccc5)CC4)cc3)O2)c(Cl)c1 [KeSeP, Ph2P(Se)CH2-Ke] ?
Resp: 3.13

Req: // returns reported MIC50 for input Clc1ccc([C@@]2(Cn3ccnc3)OC[C@H](COc3ccc(N4CCN(CP(c5ccccc5)c5ccccc5)CC4)cc3)O2)c(Cl)c1 (racemic)
Resp: 3.13

Req: Which MIC50 is listed for S=P(CN1CCN(c2ccc(OC[C@H]3CO[C@](Cn4ccnc4)(c4ccc(Cl)cc4Cl)O3)cc2)CC1)(c1ccccc1)c1ccccc1 [KeSP, Ph2P(S)CH2-Ke] ?
Resp: 3.13

Req: Could you share which MIC50 value was measured for OC(Cn1cncn1)(Cn1cncn1)c1ccc(F)cc1F [Flc, fluconazole, reference compound] ?
Resp: 6.25

Req: For CC(=O)N1CCN(c2ccc(OCC3COC(Cn4ccnc4)(c4ccc(Cl)cc4Cl)O3)cc2)CC1 (stereo not drawn) [Ke, ketoconazole, reference compound] , what is its reported MIC50?
Resp: 0.05

Req: Dear colleague, I am looking for the recorded MIC50 of the following molecule: O=P(CN1CCN(c2ccc(OC[C@H]3CO[C@](Cn4ccnc4)(c4ccc(Cl)cc4Cl)O3)cc2)CC1)(c1ccccc1)c1ccccc1 (racemic)
Resp: 0.78
